Measured values drawn from patent EP4800015A1 for this set.

Quick reference: Papp B→A at 120 min, 10 µM of the listed items.
ASSAY_PROTOCOL: Caco-2 bidirectional permeability and efflux ratio
Format: in vitro ADME
TEST_PARAMETERS: human, Caco-2; B to A, 10 µM, 120 minutes
Report the figure in ×10⁻⁶ cm/s without appending any unit label.

Worked cases, Papp B→A at 120 min, 10 µM given:
CCc1c(N2CCN(C(=O)c3ncnc(C)c3O)CC2)c(=O)n2nc(-c3cc4ccccc4s3)nc2n1CC(=O)Nc1ccc(C(F)(F)F)cc1Cl : 2.29
CCc1c(N2CCN(C(=O)c3ncnc(C)c3O)CC2)c(=O)n2nc(-c3ccc4ccoc4c3)nc2n1CC(=O)Nc1ccc(C(F)(F)F)cc1Cl : 5.09

Task item: Identify measured Papp B→A at 120 min, 10 µM corresponding to CCc1c(N2CCN(C(=O)c3ncnc(C)c3O)CC2)c(=O)n2nc(C3=CCOCC3)nc2n1CC(=O)Nc1ccc(C(F)(F)F)cc1Cl [HRO761, reference compound]
Reply: 14.5

---

ASSAY_TARGET: recombinant human WRN (Homo sapiens)
Construct: purchased BPS 101264
ASSAY_PROTOCOL: Inhibition of WRN enzyme activity (ATPase), ADP-Glo Kinase Assay
Assay type: biochemical
TEST_PARAMETERS: WRN protein 5 nM, Flap 0.1 nM, ATP 30 µM; read-out: IC50
The entries below come with measured IC50 values attached.

Previously resolved entries follow.
CCc1c(N2CCN(C(=O)c3ncnc(C)c3O)CC2)c(=O)n2nc(C3=CC4COCC4C3)nc2n1CC(=O)Nc1ccc(S(F)(F)(F)(F)F)cc1 (stereo not drawn) : 1 to 100 nM
CCc1c(N2CCN(C(=O)c3ncccc3O)CC2)c(=O)n2nc(C3=CC4CC(=O)CC4C3)nc2n1CC(=O)Nc1ccc(S(F)(F)(F)(F)F)cc1 (stereo not drawn) : < 1 nM

Task item: Recall and state the measured IC50 for `CCc1c(N2CCN(C(=O)c3ncnc(C)c3O)CC2)c(=O)n2nc(-c3cc4ccncc4s3)nc2n1CC(=O)Nc1ccc(C(F)(F)F)cc1Cl` .
Reply: 1 to 100 nM

---

Below: a set of entries, each annotated with reported AUC(0-t).
ASSAY_PROTOCOL: Pharmacokinetic test in mice after intragastric administration
Type: in vivo
TEST_PARAMETERS: male, mouse, plasma; ICR mice, Oral (10 mg/kg); read-out: Area under curve AUC0-t
Form entry: value (µg·h/mL) — number only.

Task item: Return the recorded AUC(0-t) value; entry: Cc1ncnc(C(=O)N2CCN(c3c(C)n(CC(=O)Nc4ccc(C(F)(F)F)cc4Cl)c4nc(-c5ccc6c(c5)CCO6)nn4c3=O)CC2)c1O [Example 106]
Reply: 330

Task item: Using known records, supply AUC(0-t) for CCc1c(N2CCN(C(=O)c3ncnc(C)c3O)CC2)c(=O)n2nc(-c3ccc4occc4c3)nc2n1CC(=O)Nc1ccc(C(F)(F)F)cc1Cl [Example 67]
Reply: 83.4

Task item: State, in one line, measured AUC(0-t) of CCc1c(N2CCN(C(=O)c3ncnc(C)c3O)CC2)c(=O)n2nc(-c3cc4ccccc4s3)nc2n1CC(=O)Nc1ccc(C(F)(F)F)cc1Cl [Example 80]
Reply: 104

---

ASSAY_TARGET: recombinant human WRN (Homo sapiens, UniProt Q14191)
Construct: purchased BPS 101264
Sequence (Q14191 whole entry): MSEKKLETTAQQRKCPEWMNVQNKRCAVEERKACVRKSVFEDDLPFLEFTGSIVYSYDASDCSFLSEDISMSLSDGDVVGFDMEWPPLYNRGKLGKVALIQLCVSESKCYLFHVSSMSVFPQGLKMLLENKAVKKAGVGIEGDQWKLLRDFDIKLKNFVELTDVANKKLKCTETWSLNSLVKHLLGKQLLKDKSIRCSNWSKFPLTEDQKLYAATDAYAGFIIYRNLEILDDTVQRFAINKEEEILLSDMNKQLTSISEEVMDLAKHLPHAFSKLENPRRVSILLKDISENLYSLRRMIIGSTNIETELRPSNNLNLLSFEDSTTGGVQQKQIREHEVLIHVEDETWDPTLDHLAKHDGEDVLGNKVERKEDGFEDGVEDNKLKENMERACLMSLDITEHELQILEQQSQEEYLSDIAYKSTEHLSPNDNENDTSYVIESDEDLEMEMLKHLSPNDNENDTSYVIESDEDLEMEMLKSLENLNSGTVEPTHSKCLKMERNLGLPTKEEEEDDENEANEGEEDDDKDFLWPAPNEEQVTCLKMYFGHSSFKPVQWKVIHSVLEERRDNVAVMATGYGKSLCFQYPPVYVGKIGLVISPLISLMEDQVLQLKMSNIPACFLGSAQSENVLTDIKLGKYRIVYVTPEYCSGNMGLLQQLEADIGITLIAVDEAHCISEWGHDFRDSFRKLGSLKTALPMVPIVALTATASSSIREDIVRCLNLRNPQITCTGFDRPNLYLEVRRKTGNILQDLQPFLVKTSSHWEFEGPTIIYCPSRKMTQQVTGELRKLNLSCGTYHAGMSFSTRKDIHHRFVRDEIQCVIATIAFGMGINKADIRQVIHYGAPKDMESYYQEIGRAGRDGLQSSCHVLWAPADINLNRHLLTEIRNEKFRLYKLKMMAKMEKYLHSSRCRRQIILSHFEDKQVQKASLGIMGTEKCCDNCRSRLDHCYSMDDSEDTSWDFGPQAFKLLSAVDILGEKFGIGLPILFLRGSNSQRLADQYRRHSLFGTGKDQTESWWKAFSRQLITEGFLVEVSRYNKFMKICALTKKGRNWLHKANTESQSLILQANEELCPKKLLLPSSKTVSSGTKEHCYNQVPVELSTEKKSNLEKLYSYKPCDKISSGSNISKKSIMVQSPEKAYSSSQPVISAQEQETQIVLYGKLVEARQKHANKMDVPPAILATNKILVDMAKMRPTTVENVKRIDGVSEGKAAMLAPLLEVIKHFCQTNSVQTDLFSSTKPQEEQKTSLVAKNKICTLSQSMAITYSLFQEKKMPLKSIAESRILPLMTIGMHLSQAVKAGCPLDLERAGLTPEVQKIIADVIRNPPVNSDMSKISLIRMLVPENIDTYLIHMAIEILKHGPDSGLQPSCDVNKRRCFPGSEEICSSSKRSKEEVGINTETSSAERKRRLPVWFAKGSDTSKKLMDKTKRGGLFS
ASSAY_PROTOCOL: Inhibition of WRN enzyme activity (ATPase), ADP-Glo Kinase Assay
Format: biochemical
TEST_PARAMETERS: WRN protein 5 nM, Flap 0.1 nM, ATP 30 µM; read-out: IC50
pIC50: −log10 of the molar value.
REPORTED_METRIC: pIC50

# count of solved cases: 5
CCc1c(N2CCN(C(=O)c3ncnc(C)c3O)CC2)c(=O)n2nc(-c3ccc4ccn(C)c4c3)nc2n1CC(=O)Nc1ccc(C(F)(F)F)cc1Cl : 7.00 to 9.00
CCc1c(N2CCN(C(=O)c3ncnc(C)c3O)CC2)c(=O)n2nc(-c3ccn4ncnc4c3)nc2n1CC(=O)Nc1ccc(C(F)(F)F)cc1Cl : 7.00 to 9.00
CCc1c(N2CCCN(C(=O)c3ncnc(C)c3O)CC2)c(=O)n2nc(C3=CCCCCC3)nc2n1CC(=O)Nc1ccc(S(F)(F)(F)(F)F)cc1 : 7.00 to 9.00
CCc1c(N2CCN(C(=O)c3ncnc(C)c3O)CC2)c(=O)n2nc(-c3ccc4sccc4c3)nc2n1CC(=O)Nc1ccc(C(F)(F)F)cc1Cl : 7.00 to 9.00
CCc1c(N2CCN(C(=O)c3ncnc(C)c3O)CC2)c(=O)n2nc(C3=CCCCCC3)nc2n1CC(=O)Nc1ccc(S(F)(F)(F)(F)F)cc1Cl : 7.00 to 9.00

Task item: Please look at this molecule and report its pIC50: `CCc1c(N2CCN(C(=O)c3ncnc(C)c3O)CC2)c(=O)n2nc(-c3cc4c(s3)CCN(CC(F)(F)F)C4)nc2n1CC(=O)Nc1ccc(C(F)(F)F)cc1Cl`
Reply: > 9.00

Task item: Give pIC50 for `CCc1c(N2CCN(C(=O)c3ncnc(C)c3O)CC2)c(=O)n2nc(-c3ccc4c(c3)CNCCO4)nc2n1CC(=O)Nc1ccc(C(F)(F)F)cc1Cl`
Reply: 7.00 to 9.00

Task item: Provide only the value of recorded pIC50 for `CCc1c(N2CCN(C(=O)c3ncnc(C)c3O)CC2)c(=O)n2nc(C3=CCCCCC3)nc2n1CC(=O)Nc1ccc(C(C)(C)C)cc1`
Reply: 7.00 to 9.00

Task item: Given the molecule CCc1c(N2CCN(C(=O)c3ncccc3O)CC2)c(=O)n2nc(C3=CC4CC(O)CC4C3)nc2n1CC(=O)Nc1ccc(S(F)(F)(F)(F)F)cc1 (stereo not drawn) , write its reported pIC50.
Reply: > 9.00

Task item: Annotate the molecule `CCc1c(N2CCN(C(=O)c3ncnc(C)c3O)CC2)c(=O)n2nc(C3=CCCCCC3)nc2n1CC(=O)Nc1ccc(OC(F)(F)F)cc1` with its measured pIC50.
Reply: > 9.00

Task item: Specify measured pIC50 for `CCc1c(N2CCN(C(=O)c3ncnc(C)c3O)CC2)c(=O)n2nc(C=C3CCC3)nc2n1CC(=O)Nc1ccc(S(F)(F)(F)(F)F)cc1` .
Reply: 7.00 to 9.00

---

ASSAY_TARGET: recombinant human WRN (Homo sapiens)
Construct: purchased BPS 101264
ASSAY_PROTOCOL: Inhibition of WRN enzyme activity (ATPase), ADP-Glo Kinase Assay
Format: biochemical
TEST_PARAMETERS: WRN protein 5 nM, Flap 0.1 nM, ATP 30 µM; read-out: IC50
pIC50: −log10 of the molar value.
REPORTED_METRIC: pIC50

CCc1c(N2CCN(C(=O)c3ncnc(C)c3O)CC2)c(=O)n2nc(-c3ccc4c(c3)CCO4)nc2n1CC(=O)Nc1ccc(SC(F)(F)F)cc1F : 7.00 to 9.00
CCc1c(N2CCN(C(=O)c3ncnc(C)c3O)CC2)c(=O)n2nc(C=C3CCCCC3)nc2n1CC(=O)Nc1ccc(C(F)(F)F)cc1Cl : 7.00 to 9.00

Task item: Answer briefly: pIC50 recorded on recombinant human WRN (Homo sapiens) for CCc1c(N2CCN(C(=O)c3ncnc(C)c3O)CC2)c(=O)n2nc(C3=CC4CC4C3)nc2n1CC(=O)Nc1ccc(S(F)(F)(F)(F)F)cc1Cl (stereo not drawn)
Reply: 7.00 to 9.00

Task item: Fill in pIC50 for CCc1c(N2CCN(C(=O)c3ncccc3O)CC2)c(=O)n2nc(C3=CC4CC4C3)nc2n1CC(=O)Nc1ccc(C(F)(F)F)cc1Cl (stereo not drawn) tested with recombinant human WRN (Homo sapiens).
Reply: > 9.00

Task item: State, for recombinant human WRN (Homo sapiens), measured pIC50 of the molecule listed here: `CCc1c(N2CCN(C(=O)c3ncccc3O)CC2)c(=O)n2nc(-c3ccc4c(c3)CCO4)nc2n1CC(=O)Nc1ccc(C(F)(F)F)cc1Cl`
Reply: 7.00 to 9.00

Task item: Send back recombinant human WRN (Homo sapiens) pIC50 of `[2H]c1cc2cc(-c3nc4n(CC(=O)Nc5ccc(C(F)(F)F)cc5Cl)c(CC)c(N5CCN(C(=O)c6ncnc(C)c6O)CC5)c(=O)n4n3)ccc2s1` only.
Reply: 7.00 to 9.00

---

Recorded IC50, one value per entry.
ASSAY_TARGET: recombinant human WRN (Homo sapiens)
Construct: purchased BPS 101264
ASSAY_PROTOCOL: Inhibition of WRN enzyme activity (ATPase), ADP-Glo Kinase Assay
Format: biochemical
TEST_PARAMETERS: WRN protein 5 nM, Flap 0.1 nM, ATP 30 µM; read-out: IC50

CCc1c(N2CCN(C(=O)c3ncnc(C)c3O)CC2)c(=O)n2nc(-c3ccc4ccsc4c3)nc2n1CC(=O)Nc1ccc(C(F)(F)F)cc1Cl [Example 55] : 1 to 100 nM
CCc1c(N2CCN(C(=O)c3nccc(Cl)c3O)CC2)c(=O)n2nc(C3=CC4COCC4C3)nc2n1CC(=O)Nc1ccc(C(F)(F)F)cc1Cl (stereo not drawn) [Example 188] : 1 to 100 nM

Task item: Fill in reported IC50 for this entry: CCc1c(N2CCN(C(=O)c3ncnc(C)c3O)CC2)c(=O)n2nc(C3=CC4(CCNCC4)C3)nc2n1CC(=O)Nc1ccc(C(F)(F)F)cc1Cl [Example 143]
Reply: 1 to 100 nM
